Origin of the recorded values: patent US20240043470A1

# ASSAYED_TARGET: β5i of hu i-20S (Homo sapiens (Human), UniProt P20618+P28062)
# EXPERIMENT_SUMMARY: IC50 determination against β5i of human immunoproteasome (Ac-ANW-AMC hydrolysis);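 also: enzyme activity taken as the initial reaction velocity per well, with SDS added to activate the proteasome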
# Format: biochemical
# TEST_CONDITIONS: β5i, 0.4 nM i-20S, 15 μM Ac-ANW-AMC
ATTRIBUTE_MEASURED: IC50

input: # query: IC50 of entry Cc1ccc(CNC(=O)[C@@H]2Cc3cccc(c3)Oc3cccc(c3)C[C@H](NC(=O)OC(C)(C)C)C(=O)N[C@@H](CCc3ccccc3)C(=O)N2)cc1
output: > 100 µM

input: Quick one: IC50 of O=C1CCc2cccc(c2)OCCCC[C@@H](C(=O)NC2CCCC2)NC(=O)[C@H](CC(=O)N2CCCC2C2CC2)N1 (single isomer, unassigned) [Compound 3-45-A] ?
output: > 100 µM

input: So what does the record say about IC50 for CC(C)(C)OC(=O)N[C@H]1Cc2cccc(c2)Oc2cccc(c2)C[C@@H](C(=O)OCc2ccccc2)NC(=O)[C@H](CCc2ccccc2)NC1=O ?
output: > 100 µM

input: Given the entry COC1(CNC(=O)[C@@H]2Cc3cccc(c3)Oc3cccc(c3)CCC(=O)N[C@@H](CCN3CCOCC3)C(=O)N2)CC1 , report its measured IC50.
output: > 100 µM

input: I would be grateful if you could share the reported IC50 for O=C(N[C@H]1Cc2cccc(c2)Oc2cccc(c2)C[C@@H](C(=O)NCC(F)(F)F)NC(=O)[C@H](CCc2ccccc2)NC1=O)C1CC1 .
output: > 100 µM

input: # lookup: IC50 of O=C1CCc2cccc(c2)Oc2cccc(c2)C[C@@H](C(=O)NC2CCCC2)NC(=O)[C@H](CCN2CCOCC2)N1
output: > 100 µM

input: I am curious: what IC50 value has been reported for O=C1CCc2cccc(c2)OCCCC[C@@H](C(=O)NCc2ccccc2F)NC(=O)[C@H](CC(=O)N2CCCC2C2CC2)N1 (single isomer, unassigned) [Compound 3-46-A] ?
output: 0.068 µM

input: Need IC50 of CN1C(=O)[C@H](CCN2CCOCC2)NC(=O)[C@@H](N2CCCC2=O)Cc2cccc(c2)Oc2cccc(c2)C[C@H]1C(=O)NCC(F)(F)F , thanks.
output: 61 µM

input: Requested field: IC50. Item: O=C1CCCCCCCCC[C@@H](C(=O)NCc2cccc3ccccc23)NC(=O)[C@H](CC(=O)N2CCCC2)N1
output: 61.3 µM

input: So what does the record say about IC50 for O=C1CCc2cccc(c2)OCCCC[C@@H](C(=O)NCc2ccccc2F)NC(=O)[C@H](CCc2ccc(F)cc2)N1 ?
output: > 100 µM

input: Any idea what its IC50 is? The compound is CCN(CC)[C@H]1Cc2cccc(c2)Oc2cccc(c2)C[C@@H](C(=O)NCc2ccccc2)NC(=O)[C@H](CCc2ccccc2)NC1=O
output: 100 µM

input: Recorded IC50 of COC(=O)C1COCCOc2cccc(c2)CCC(=O)NC(CCc2ccccc2)C(=O)N1 (stereo not drawn) , please.
output: > 10 µM

input: Using the record for CC(=O)N[C@H]1Cc2cccc(c2)OC/C=C/C[C@@H](C(=O)NCC(F)(F)F)NC(=O)[C@H](CCc2ccccc2)NC1=O , report its IC50.
output: 15.6 µM

input: Which IC50 is listed for O=C1CCCCCCCCCC[C@@H](C(=O)NCc2cccc3ccccc23)NC(=O)[C@H](CC(=O)N2CCCC2)N1 ?
output: 3.52 µM

input: Any idea what its IC50 is? The compound is O=C1CCCCCCCCOC[C@@H](C(=O)NCc2cccc3ccccc23)NC(=O)[C@H](CC(=O)N2CCCC2)N1
output: 4.71 µM

input: Would you kindly share the measured IC50 for CN(Cc1ccccc1)C(=O)[C@@H]1CCCCOc2cccc(c2)C[C@H](N2CCCC2=O)C(=O)N[C@@H](CCc2ccc(F)cc2)C(=O)N1 ?
output: > 100 µM

input: Query (compound): O=C1CCc2cccc(c2)OCCCC[C@@H](C(=O)NC2CCCC2)NC(=O)[C@H](CCc2ccc(F)cc2)N1 ; field requested: IC50
output: > 100 µM

input: # input compound: O=C1CCc2cccc(c2)OCCCC[C@@H](C(=O)NC2CCCC2)NC(=O)[C@H](CCN2CCC(F)(F)CC2)N1 ; wanted: its IC50
output: > 100 µM

---

# ASSAYED_TARGET: β5c of hu c-20S (Homo sapiens (Human), UniProt P20618+P28074)
# EXPERIMENT_SUMMARY: IC50 determination against β5c of human constitutive proteasome (suc-LLVY-AMC hydrolysis);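 also: IC50 obtained by fitting initial reaction velocities to a dose-dependent inhibition model, with SDS present as proteasome activator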
# Format: biochemical
# TEST_CONDITIONS: 0.2 nM c-20S, 25 μM suc-LLVY-AMC
ATTRIBUTE_MEASURED: IC50 (µM)

>>> measured_value("O=C1CCCCCCCCCC[C@@H](C(=O)NCc2ccccc2F)NC(=O)[C@H](CC(=O)N2CCCC2C2CC2)N1 (stereo partly shown)")
0.274
>>> measured_value("O=C1CCc2cccc(c2)Oc2ccc(cc2)C[C@@H](C(=O)NCc2ccccc2F)NC(=O)[C@H](CC(=O)N2CCCC2)N1")
75.4

(1) O=C(N[C@H]1Cc2cccc(c2)Oc2cccc(c2)C[C@@H](C(=O)NCc2ccccc2)NC(=O)[C@H](CCc2ccccc2)NC1=O)c1ccccn1
(2) O=C1CCc2cccc(c2)Oc2ccc(cc2)C[C@@H](C(=O)NCc2cccc3ccccc23)NC(=O)[C@H](CC(=O)N2CCCC2)N1 (single isomer, unassigned)
(3) CS(=O)(=O)CCNC(=O)[C@@H]1Cc2cccc(c2)Oc2cccc(c2)C[C@H](NC(=O)CO)C(=O)N[C@@H](CCc2ccccc2)C(=O)N1
(4) O=C1CCc2cccc(c2)OCCCC[C@@H](C(=O)NC2CCCC2)NC(=O)[C@H](CCN2CCC(F)(F)CC2)N1
input: Put these in order: smallest IC50 first, largest last. Hello, could you send the labels back in the order asked? Thank you.
output: 1, 3, 2, 4
